Tested on: SK-MEL-28 melanoma
assay: NCI tumour cell line growth inhibition, 48 h
# maps each entry to its log10 TGI
The base-10 logarithm of TGI, taken with TGI in µM, is what appears here.

Use these answered entries as a reference point.
O=C1/C(=C/c2ccc(O)cc2)CCCC1CN1CCCCC1 (centres undefined) :: 1.03
COc1cc(-c2cc3ncccc3c3nc(OCCN(C)C)c4cccnc4c23)cc(OC)c1OC :: 0.38
CC(=O)C1=C(C)O[C@@H]2O[C@H](COCc3ccccc3)[C@@H](OCc3ccccc3)[C@H](O)[C@@H]2S1 :: 1.81
Nc1nc(N)c(CCCCc2ccccc2)c(C=O)n1 :: 1.51
Cc1ccccc1NC(=O)Cc1csc(N/N=C2\NC(=O)/C(=C/c3cccc([N+](=O)[O-])c3)S2)n1 :: 1.74

Lab note: next compound to report on.
Prompt: Tell me measured log10 TGI for `O=C(CCCn1c2c(sc3ccccc32)c(=O)n2nnc(-c3ccccc3)c12)NCCc1cnc[nH]1` please.
Completion: 0.37
